As shown below, each of these compounds has a reported pKi value.
- targetUnderTest: UniProtKB Q9Y5N1
- assayComment: Methyl histamine binding in human histamine H3 receptor cell line
- cond: membranes of stably transfected HEK293T cells, radioligand 1 nM, Ki from IC50 by Cheng-Prusoff
pKi: −log10 of the molar value. Counter-ions that a name gives are not always drawn.
measurementName: pKi

[
  {
    "compound": "COc1ccc2c(ccn2-c2ccc(C(=O)N3CC[C@H](N4CCCC4)C3)cc2)c1 [Example 33]",
    "targetUnderTest": "UniProtKB Q9Y5N1",
    "measuredValue": "> 8.00"
  },
  {
    "compound": "N#Cc1ccc2c(ccn2-c2ccc(C(=O)N3CC[C@@H](N4CCCC4)C3)cc2)c1 [Example 46]",
    "targetUnderTest": "UniProtKB Q9Y5N1",
    "measuredValue": "> 8.00"
  },
  {
    "compound": "O=C(c1ccc(-n2cc3cc(F)ccc3n2)cc1)N1CC[C@H](N2CCCC2)C1 [Example 45]",
    "targetUnderTest": "UniProtKB Q9Y5N1",
    "measuredValue": "> 8.00"
  },
  {
    "compound": "Cc1nc2ccccc2n1-c1ccc(C(=O)N2CC[C@H](N3CCC[C@H]3C)C2)cc1 [Example 21]",
    "targetUnderTest": "UniProtKB Q9Y5N1",
    "measuredValue": "> 8.00"
  },
  {
    "compound": "Cc1nc2ccccc2n1-c1ccc(C(=O)N2CC[C@H](N3CCC[C@@H]3C)C2)cc1 [Example 22]",
    "targetUnderTest": "UniProtKB Q9Y5N1",
    "measuredValue": "> 8.00"
  },
  {
    "compound": "Cc1nc2ccccc2n1-c1ccc(C(=O)N2CC[C@H](N3CCCCC3C)C2)cc1 (stereo partly shown) [Example 23]",
    "targetUnderTest": "UniProtKB Q9Y5N1",
    "measuredValue": "> 8.00"
  },
  {
    "compound": "O=C(c1ccc(-n2ccc3c(F)cccc32)cc1)N1CC[C@H](N2CCCC2)C1 [Example 31]",
    "targetUnderTest": "UniProtKB Q9Y5N1",
    "measuredValue": "> 8.00"
  },
  {
    "compound": "O=C(c1ccc(-n2ccc3cc(F)ccc32)cc1)N1CC[C@H](N2CCCC2)C1 [Example 37]",
    "targetUnderTest": "UniProtKB Q9Y5N1",
    "measuredValue": "> 8.00"
  },
  {
    "compound": "O=C(c1ccc(-n2cnc3ccccc32)cc1)N1CC[C@H](N2CCCCC2)C1 [Example 13]",
    "targetUnderTest": "UniProtKB Q9Y5N1",
    "measuredValue": "> 8.00"
  },
  {
    "compound": "CN1CCN([C@H]2CCN(C(=O)c3ccc(-n4cnc5ccccc54)cc3)C2)CC1 [Example 10]",
    "targetUnderTest": "UniProtKB Q9Y5N1",
    "measuredValue": "< 7.00"
  },
  {
    "compound": "O=C(c1ccc(-n2cc3ccc(F)cc3n2)cc1)N1CC[C@H](N2CCCC2)C1 [Example 44]",
    "targetUnderTest": "UniProtKB Q9Y5N1",
    "measuredValue": "> 8.00"
  },
  {
    "compound": "Cc1nc2ccccc2n1-c1ccc(C(=O)N2CC[C@H](N3CCCCCC3)C2)cc1 [Example 20]",
    "targetUnderTest": "UniProtKB Q9Y5N1",
    "measuredValue": "> 8.00"
  },
  {
    "compound": "c1ccc2c(c1)ncn2-c1ccc(CN2CC[C@H](N3CCCC3)C2)cc1 [Example 14, hydrochloride]",
    "targetUnderTest": "UniProtKB Q9Y5N1",
    "measuredValue": "> 8.00"
  },
  {
    "compound": "Cc1nc2ccccc2n1-c1ccc(C(=O)N2CC[C@H](N3CCCC(C)C3)C2)cc1 (stereo partly shown) [Example 24]",
    "targetUnderTest": "UniProtKB Q9Y5N1",
    "measuredValue": "> 8.00"
  },
  {
    "compound": "CC1CCCCN1[C@H]1CCN(C(=O)c2ccc(-n3cnc4ccccc43)cc2)C1 (stereo partly shown) [Example 12]",
    "targetUnderTest": "UniProtKB Q9Y5N1",
    "measuredValue": "7.30 to 7.60"
  },
  {
    "compound": "Cc1nc2ccccc2n1-c1ccc(C(=O)N2CC[C@H](N3CCC(C)CC3)C2)cc1 [Example 25]",
    "targetUnderTest": "UniProtKB Q9Y5N1",
    "measuredValue": "7.30 to 7.60"
  },
  {
    "compound": "O=C(c1ccc(-n2ncc3ccc(F)cc32)cc1)N1CC[C@H](N2CCCC2)C1 [Example 41]",
    "targetUnderTest": "UniProtKB Q9Y5N1",
    "measuredValue": "7.60 to 8.00"
  },
  {
    "compound": "Cc1nc2ccccc2n1-c1ccc(C(=O)N2CC[C@H](N3CCCCC3)C2)cc1 [Example 28]",
    "targetUnderTest": "UniProtKB Q9Y5N1",
    "measuredValue": "> 8.00"
  },
  {
    "compound": "O=C(c1ccc(-n2cnc3ccccc32)cc1)N1CCC(N2CCCC2)C1 (stereo not shown) [Example 2, hydrochloride]",
    "targetUnderTest": "UniProtKB Q9Y5N1",
    "measuredValue": "> 8.00"
  }
]

* * *

- targetUnderTest: Histamine Receptor H3 (Homo sapiens, UniProt Q9Y5N1)
- Sequence (Q9Y5N1 whole entry): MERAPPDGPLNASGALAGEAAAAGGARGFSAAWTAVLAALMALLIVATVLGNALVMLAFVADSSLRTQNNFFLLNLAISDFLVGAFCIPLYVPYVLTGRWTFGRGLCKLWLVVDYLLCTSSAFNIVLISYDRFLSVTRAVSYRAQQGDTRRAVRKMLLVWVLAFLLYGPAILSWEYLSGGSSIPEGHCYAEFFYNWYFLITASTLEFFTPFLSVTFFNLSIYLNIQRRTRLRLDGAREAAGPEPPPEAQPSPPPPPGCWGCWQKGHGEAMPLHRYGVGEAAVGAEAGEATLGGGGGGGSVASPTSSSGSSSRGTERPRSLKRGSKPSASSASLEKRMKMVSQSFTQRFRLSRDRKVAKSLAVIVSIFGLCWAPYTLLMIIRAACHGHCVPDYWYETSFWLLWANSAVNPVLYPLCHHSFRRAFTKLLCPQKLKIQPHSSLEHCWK
- assayComment: Cyclic AMP assay for histamine receptor H3 antagonism activity
- Type: cell-based
- Parameters: expressed in transfected cells
- cond: stable H3 cells, histamine plus 10 μM forskolin, 30 min at 30° C., HitHunter cAMP kit
Counter-ions that a name gives are not always drawn.

[
  {
    "molecule": "C[C@H]1CCCN1[C@H]1CCN(C(=O)c2ccc(-n3cnc4ccccc43)cc2)C1 [Example 7]",
    "Kb": "< 0.01 µM"
  },
  {
    "molecule": "COc1ccc2c(ccn2-c2ccc(C(=O)N3CC[C@H](N4CCCC4)C3)cc2)c1 [Example 33]",
    "Kb": "< 0.01 µM"
  },
  {
    "molecule": "Cc1nc2ccccc2n1-c1ccc(C(=O)N2CC[C@H](N3CCC[C@H]3C)C2)cc1 [Example 21]",
    "Kb": "< 0.01 µM"
  },
  {
    "molecule": "O=C(c1ccc(-n2ccc3c(F)cccc32)cc1)N1CC[C@H](N2CCCC2)C1 [Example 31]",
    "Kb": "< 0.01 µM"
  },
  {
    "molecule": "O=C(c1ccc(-n2cnc3ccccc32)cc1)N1CCC(N2CCCC2)C1 (centres unmarked) [Example 2, hydrochloride]",
    "Kb": "< 0.01 µM"
  }
]
